B1: TPD52L2 (parent)
chain: EAEEEELRAELTKVEEEIVTLRQV

variants of: B1; assay: protein stability index of a GFP-peptide fusion (GPS, HEK-293T) (PSI 1-6); higher = more stable; settings: c terminus: a fixed tail appended;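 note: lentivirally expressed fusions sorted by FACS into six bins by GFP to DsRed ratio, PSI derived from sequencing read proportions per bin multiplied by bin number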
I'd appreciate it if you could supply protein stability index values for the items below.
One number for each entry.

Field: example entries. Status: answers known.
E15D
5.55
L7S
5.58
V24N
4.72
R22C
3.66
A9Y
3.44

Report protein stability index for each item below.
1. E6W
2. R8K
3. L21S
4. L21D
5. I18V
6. R22T
7. L7T
8. R8E

1. 2.62
2. 4.59
3. 5.68
4. 5.73
5. 5.35
6. 4.18
7. 5.39
8. 4.84
